target: UniProt:P31639; assay: Inhibitory effects on human SGLT2 activities (14C-AMG uptake, sodium-dependent glucose transport assay); type: cell-based; conditions: hSGLT2-expressing CHO cells, 37° C. for 2 h, single determinations
Sequence (P31639 whole entry): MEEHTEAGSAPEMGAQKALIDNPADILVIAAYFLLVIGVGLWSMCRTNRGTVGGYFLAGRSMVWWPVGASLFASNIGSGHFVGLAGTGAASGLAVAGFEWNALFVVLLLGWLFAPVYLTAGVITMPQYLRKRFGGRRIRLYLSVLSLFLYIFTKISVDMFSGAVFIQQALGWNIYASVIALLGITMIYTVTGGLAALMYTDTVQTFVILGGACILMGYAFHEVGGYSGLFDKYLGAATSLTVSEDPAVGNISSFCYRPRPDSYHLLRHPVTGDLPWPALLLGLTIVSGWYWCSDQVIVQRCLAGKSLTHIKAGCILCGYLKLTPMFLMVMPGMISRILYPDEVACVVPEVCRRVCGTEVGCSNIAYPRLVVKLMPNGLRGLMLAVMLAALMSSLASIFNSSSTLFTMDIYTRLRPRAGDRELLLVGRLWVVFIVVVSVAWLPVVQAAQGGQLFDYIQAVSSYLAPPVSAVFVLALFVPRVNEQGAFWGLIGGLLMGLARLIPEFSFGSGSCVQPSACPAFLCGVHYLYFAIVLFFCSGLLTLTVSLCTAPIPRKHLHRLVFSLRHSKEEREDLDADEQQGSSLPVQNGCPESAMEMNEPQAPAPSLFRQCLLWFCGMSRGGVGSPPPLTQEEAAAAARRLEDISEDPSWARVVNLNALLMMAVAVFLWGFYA
measurement_kind: IC50 (nM)

Worked cases, IC50 given:
C=Cc1ccc(Cc2cc([C@@H]3O[C@H](CO)[C@@H](O)[C@H](O)[C@H]3O)c3c(c2Cl)OCC3)cc1 ... 0.37
COc1ccc(Cc2cc([C@@H]3O[C@H](CO)[C@@H](O)[C@H](O)[C@H]3O)c3c(c2Cl)CCCC3)cc1 ... 0.6
CCc1ccc(Cc2cc([C@@H]3O[C@H](CO)[C@@H](O)[C@H](O)[C@H]3O)c3c(c2C)CCCC3)cc1 ... 0.59
CCc1ccc(Cc2cc([C@@H]3O[C@H](CO)[C@@H](O)[C@H](O)[C@H]3O)c3c(c2Cl)OCCC3)cc1 ... 0.75
OC[C@H]1O[C@@H](c2cc(Cc3cc4ccccc4s3)c(Cl)c3c2OCO3)[C@H](O)[C@@H](O)[C@@H]1O ... 1.5

[I] OC[C@H]1O[C@@H](c2cc(Cc3ccc(C4CCC4)cc3)c(Cl)c3c2OCCC3)[C@H](O)[C@@H](O)[C@@H]1O
[II] COc1ccc(Cc2cc([C@@H]3O[C@H](CO)[C@@H](O)[C@H](O)[C@H]3O)c3c(c2Cl)CCC3)cc1
Q: Endpoint returns the identifier whose IC50 is numerically larger, either I or II . Write down the label of the entry you select.
A: I
(I: 1.1 nM, II: 0.68 nM)
